target: 5-HT2C receptors (Sus scrofa); construct: the tissue used is the choroid plexus of the pig; from tissue; host or cells: pig choroid plexus; assay: In vitro binding affinity for 5-HT2C receptor (3H-mesulergine radioligand binding); conditions: choroid plexus of the pig, read-out: 5-HT2C (pIC50) (converted)
Sequence (K7GSR7 1-457): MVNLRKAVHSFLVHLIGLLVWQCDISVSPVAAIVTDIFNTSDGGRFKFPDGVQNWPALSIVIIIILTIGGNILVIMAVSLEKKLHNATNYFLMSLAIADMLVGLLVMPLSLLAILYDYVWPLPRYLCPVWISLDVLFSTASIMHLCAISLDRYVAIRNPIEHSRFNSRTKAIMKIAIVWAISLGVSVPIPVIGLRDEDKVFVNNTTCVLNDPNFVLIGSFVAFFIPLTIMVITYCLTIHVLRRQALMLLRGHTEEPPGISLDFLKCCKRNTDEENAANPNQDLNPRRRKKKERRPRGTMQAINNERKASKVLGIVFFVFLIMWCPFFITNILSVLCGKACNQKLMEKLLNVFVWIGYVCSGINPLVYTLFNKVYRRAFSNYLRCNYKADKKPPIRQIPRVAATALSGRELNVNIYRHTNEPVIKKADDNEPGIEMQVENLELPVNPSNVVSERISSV
result-type: IC50
For clarity, give the value followed by its unit.

Worked set:
# compound, result-type, obs-value
measured = [
    ("OCCC1CCN(CC2CC3c4ccccc4Sc4sccc4C3O2)CC1 (centres unmarked) [Compound 11]", "IC50", "39.8 nM"),
    ("CNCC1CC2c3ccccc3N(Cc3ccccc3)c3ncccc3C2O1 (mixture of isomers) [Compound 37]", "IC50", "100 nM"),
    ("CN(C)CC1CC2c3ccccc3Cc3ccsc3C2O1 (centres unmarked) [Compound 35]", "IC50", "15.8 nM"),
]

IN: Given the compound CN(C)CC1CC2c3ccccc3Sc3sccc3C2O1 (centres unmarked) [Compound 9] , write its reported IC50.
OUT: 25.1 nM

IN: Let me know recorded IC50 for OC1CCN(C[C@H]2C[C@@H]3c4ccccc4Sc4sccc4[C@H]3O2)C1 (relative stereo) [Compound 16] , thanks.
OUT: 15.8 nM
